test: Inhibition of human intestinal carboxylesterase
pKi: −log10 of the molar value.
Everything with pKi lower than 6 is 0.0; everything else, including exactly 6, is 1.0.

- O=C(C(=O)c1ccc([N+](=O)[O-])cc1)c1ccc([N+](=O)[O-])cc1: 1.0
- O=C1Cc2ccccc2C1=O: 0.0
- O=C1C(=O)c2c3ccccc3cc3cccc1c23: 1.0
- O=C1C(=O)c2ccccc2CCc2ccccc21: 0.0

Is the recorded value of pKi equal to or greater than 6 for this molecule? CC1(C)[C@@H]2CC[C@]1(C)C(=O)C2=O (racemic) 0.0

Is the recorded value of pKi equal to or greater than 6 for this molecule? `O=C1C(=O)c2cccc3c2N(CCC3)C1=O` 0.0

Is the recorded value of pKi equal to or greater than 6 for this molecule? `O=C(C(=O)C1CCCCC1)C1CCCCC1` 1.0

Is the recorded value of pKi equal to or greater than 6 for this molecule? `O=C1C(=O)c2cccnc2-c2ncccc21` 0.0

---

Entries below carry reported Ki on Liver carboxylesterase 1 (Homo sapiens, UniProt P23141).
Sequence (P23141 whole entry): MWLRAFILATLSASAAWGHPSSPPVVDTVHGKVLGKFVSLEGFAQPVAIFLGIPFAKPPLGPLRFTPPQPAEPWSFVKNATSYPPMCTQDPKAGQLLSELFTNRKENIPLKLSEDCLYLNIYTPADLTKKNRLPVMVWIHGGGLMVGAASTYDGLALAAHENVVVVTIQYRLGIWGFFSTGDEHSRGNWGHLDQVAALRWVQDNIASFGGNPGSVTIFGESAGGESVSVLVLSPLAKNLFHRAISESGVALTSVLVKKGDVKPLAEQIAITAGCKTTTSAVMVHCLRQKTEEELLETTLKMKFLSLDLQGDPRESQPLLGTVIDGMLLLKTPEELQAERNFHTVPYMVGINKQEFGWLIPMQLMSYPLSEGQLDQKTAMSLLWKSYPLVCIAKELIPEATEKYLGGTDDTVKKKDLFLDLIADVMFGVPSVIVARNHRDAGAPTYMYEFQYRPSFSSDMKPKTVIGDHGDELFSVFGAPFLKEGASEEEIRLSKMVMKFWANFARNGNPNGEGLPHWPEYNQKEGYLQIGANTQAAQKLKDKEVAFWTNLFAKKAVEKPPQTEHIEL
Dear colleague, please return just the value in nM, with no unit written.

Here's what some known entries look like.
* O=C1C(=O)c2cccc3cccc1c23 | 31
* O=C1C(=O)c2c3ccccc3cc3cccc1c23 | 1.5
* O=C1C=Cc2ccccc2C1=O | 930
* O=C1C(=O)c2ccccc2-c2ccccc21 | 2.5
* O=C(C(=O)C1CCCCC1)C1CCCCC1 | 72
* O=C1C(=O)c2cc([N+](=O)[O-])ccc2-c2ccccc21 | 15.9
* O=C1C(=O)c2sccc2-c2ccsc21 | 150
* O=C(C(=O)c1ccc([N+](=O)[O-])cc1)c1ccc([N+](=O)[O-])cc1 | 9800

Switching to the query record.
Using Liver carboxylesterase 1 (Homo sapiens, UniProt P23141) as the test system, report measured Ki of `O=C1C(=O)c2ccc([N+](=O)[O-])c3c([N+](=O)[O-])ccc1c23` . 570

---

pKi: −log10 of the molar value.
Entries below carry reported pKi on Cholinesterase (Homo sapiens, UniProt P06276).
Sequence (P06276 whole entry): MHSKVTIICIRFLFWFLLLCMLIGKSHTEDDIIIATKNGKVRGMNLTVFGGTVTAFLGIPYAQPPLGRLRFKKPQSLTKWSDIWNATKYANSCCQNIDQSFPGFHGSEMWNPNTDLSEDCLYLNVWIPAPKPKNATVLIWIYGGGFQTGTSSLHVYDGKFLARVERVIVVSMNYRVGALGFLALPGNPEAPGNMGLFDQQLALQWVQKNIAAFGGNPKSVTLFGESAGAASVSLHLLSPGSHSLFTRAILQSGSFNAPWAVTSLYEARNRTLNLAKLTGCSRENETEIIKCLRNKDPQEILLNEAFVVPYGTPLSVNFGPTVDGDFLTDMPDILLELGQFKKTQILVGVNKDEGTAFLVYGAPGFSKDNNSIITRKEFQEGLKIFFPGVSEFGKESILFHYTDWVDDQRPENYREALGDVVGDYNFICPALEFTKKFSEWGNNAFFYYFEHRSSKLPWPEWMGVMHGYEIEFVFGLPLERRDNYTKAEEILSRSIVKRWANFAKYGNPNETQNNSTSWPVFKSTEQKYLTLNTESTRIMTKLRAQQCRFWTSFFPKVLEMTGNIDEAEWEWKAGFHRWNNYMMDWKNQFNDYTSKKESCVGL

Here's what some known entries look like.
- O=C(C(=O)c1ccc([N+](=O)[O-])cc1)c1ccc([N+](=O)[O-])cc1: < 4.00
- CC1(C)[C@@H]2CC[C@]1(C)C(=O)C2=O (racemic): < 4.00
- O=C1C(=O)c2ccc([N+](=O)[O-])c3c([N+](=O)[O-])ccc1c23: 5.51
- CCOc1ccc(C(=O)C(=O)c2ccc(OCC)cc2)cc1: < 4.00
- O=C1C(=O)c2cccnc2-c2ncccc21: < 4.00
- O=C1C(=O)c2ccccc2CCc2ccccc21: < 4.00

Using Cholinesterase (Homo sapiens, UniProt P06276) as the test system, report measured pKi of `O=C1C(=O)c2cc([N+](=O)[O-])ccc2-c2ccccc21` . 5.78

---

test: Inhibition of human intestinal carboxylesterase
# log10(Ki) per entry
Annotation: log10 of Ki, µM basis.

Here's what some known entries look like.
- O=C1C(=O)c2sccc2-c2ccsc21: -0.07
- CCOc1ccc(C(=O)C(=O)c2ccc(OCC)cc2)cc1: 0.15
- O=C1C(=O)N2CCCc3cccc1c32: 0.62
- O=C1C(=O)c2cc([N+](=O)[O-])ccc2-c2ccccc21: -0.97
- Cc1cc(C)c(C(=O)C(=O)c2c(C)cc(C)cc2C)c(C)c1: 0.61

Please report the measured log10(Ki) for `O=C1C(=O)c2ccc([N+](=O)[O-])c3c([N+](=O)[O-])ccc1c23` -0.21

Please report the measured log10(Ki) for `O=C1C=Cc2ccccc2C1=O` 0.38

---

Entries below carry reported Ki on Liver carboxylesterase 1 (Homo sapiens).
Dear colleague, please return just the value in µM, with no unit written.

- O=C1Cc2ccccc2C1=O: 5.24
- O=C1C(=O)c2cccc3c2N(CCC3)C1=O: 5.38
- O=C1C(=O)N2CCCc3cccc1c32: 1.54

Using Liver carboxylesterase 1 (Homo sapiens) as the test system, report measured Ki of `O=C1C(=O)c2ccccc2CCc2ccccc21` . 2.98

Using Liver carboxylesterase 1 (Homo sapiens) as the test system, report measured Ki of `O=C1C(=O)c2cccnc2-c2ncccc21` . 5.4

---

Entries below carry reported pKi on Cholinesterase (Homo sapiens, UniProt P06276).
pKi: −log10 of the molar value.

Here's what some known entries look like.
* Cc1cc(C)c(C(=O)C(=O)c2c(C)cc(C)cc2C)c(C)c1 | < 4.00
* O=C1Cc2ccccc2C1=O | 5.58
* COc1ccc(C(=O)C(=O)c2ccc(C(=O)O)cc2)cc1 | < 4.00

Using Cholinesterase (Homo sapiens, UniProt P06276) as the test system, report measured pKi of `O=C1C(=O)c2c3ccccc3cc3cccc1c23` . < 4.00

Using Cholinesterase (Homo sapiens, UniProt P06276) as the test system, report measured pKi of `O=C1C(=O)c2sccc2-c2ccsc21` . < 4.00

Using Cholinesterase (Homo sapiens, UniProt P06276) as the test system, report measured pKi of O=C1C(=O)c2cccc3cccc1c23 [ACENAPHTHOQUINONE] . 5.53

Each recorded value in this set is attributed to ChEMBL document CHEMBL1138234.
